system: SK-MEL-28 melanoma; test: NCI tumour cell line growth inhibition, 48 h
Catalogue of TGI readings, one per entry.

A selection of reference data follows.
molecule=O=C(CNc1ccc2c(c1)C(=O)c1ccccc1C2=O)Nc1ccc2c(c1)C(=O)c1ccccc1C2=O result="3.13 µM"
molecule=COc1ccc(C(=O)Cc2c(C(=O)c3ccccc3)c3ccccc3n2C(=O)c2ccccc2)cc1 result="> 100 µM"
molecule=COc1cc(CNc2ccc3nc4n(c(=O)c3c2)CCCCC4)cc(OC)c1OC result="> 100 µM"
molecule=Oc1cc(Br)cc2cccnc12 result="> 100 µM"
molecule=Ic1ccccc1-c1ccccc1 result="> 100 µM"
molecule=O=C1C(=O)c2ccccc2C(O)=C1CC=C(Br)Br result="> 100 µM"
molecule=C=CC[N+]12CN3CN(CN(C3)C1)C2 result="55.5 µM"
molecule="BrC1=CC=C2NC=CC3=CC=NC1C32 (stereo not drawn)" result="> 100 µM"

# input Give TGI for "CC(C)=NN/C(=N\S(=O)(=O)c1ccc(C)cc1)Nc1ccc(Cl)cc1" tested on SK-MEL-28 melanoma.
# output > 100 µM

# input Give TGI for CC1(c2cccc3ccccc23)OC(=O)c2ccccc21 (stereo not drawn) tested on SK-MEL-28 melanoma.
# output 75.8 µM

# input Give TGI for CC(C)(C)N1C(C(=O)c2ccccc2)C1c1ccccc1 (stereo not drawn) tested on SK-MEL-28 melanoma.
# output > 100 µM

---

tested on: MDA-MB-231 breast; assay: NCI tumour cell line growth inhibition, 48 h; in the data active = GI50 below about 0.43 µM; inactive = the rest
Pick one and only one: true (1) = active, false (0) = inactive

Reference set (3 entries):
compound=CC(C)(O)CS(=O)(=O)Nc1ccc2c(c1)CCN(C(=O)COc1cccnc1)C2 category_label="false (0)"
compound=CCc1c(C#N)c(S[C@@H](C(N)=O)c2ccccc2)nc(N(C)C)c1C#N category_label="false (0)"
compound=COc1ccc(/C=C/C(=O)c2ccc(SC)cc2)cc1OC category_label="false (0)"

# input Returns: the outcome recorded for "O=c1c2ccccc2n(C[C@H]2CO2)c2ccccc12" in this assay.
# output false (0)

# input Returns: the outcome recorded for "CC[C@H](Nc1nc(NCc2cnc(C)cc2C)c2ncn(C(C)C)c2n1)[C@@H](C)O" in this assay.
# output true (1)

# input Returns: the outcome recorded for "CC(C)[C@H](CO)Nc1nc(Nc2ccc(C(=O)NCCNS(=O)(=O)c3cccc4c(N(C)C)cccc34)c(Cl)c2)c2ncn(C(C)C)c2n1" in this assay.
# output false (0)

# input Returns: the outcome recorded for "C=CC(=O)N1CCN(c2nc(=O)n(-c3c(C)ccnc3C(C)C)c3nc(-c4c(O)cccc4F)c(F)cc23)[C@@H](C)C1" in this assay.
# output false (0)

# input Returns: the outcome recorded for "Cc1ccc(-n2c3c(c4c(CN(C)C)c(O)ccc42)CCc2ccccc2C3=O)cc1" in this assay.
# output false (0)

# input Returns: the outcome recorded for "O=c1ccc2nc(-c3ccccc3)nn(-c3ccccn3)c-2c1" in this assay.
# output false (0)

# input Returns: the outcome recorded for CC(C)(C)c1nn(-c2ccccc2)c2c1C(=O)CSC(c1ccccc1Cl)N2 (stereo not drawn) in this assay.
# output false (0)

---

system: TK-10 renal; assay: NCI tumour cell line growth inhibition, 48 h
reported_endpoint: TGI

# input Provide TGI value for the following compound: CCOP(=O)(CCCC(O)CNc1cc(Cl)nc(N)n1)OCC (stereo not drawn)
# output > 100 µM

# input Provide TGI value for the following compound: COC(=O)c1ccccc1CC1Cc2ccc3c(c2C1)CCC3 (stereo not drawn)
# output > 100 µM

# input Provide TGI value for the following compound: "CC1(C)O[C@@H]2[C@@H](COC(=O)c3ccccc3)C[C@@H](C#N)[C@@H]2O1"
# output > 100 µM

---

test system: A549 NSCLC; experiment: NCI tumour cell line growth inhibition, 48 h
Catalogue of TGI readings, one per entry.

A selection of reference data follows.
compound=COc1c(OC)c(OC)c2c(c1OC)c(=O)c1ccccc1n2C target_under_test="A549 NSCLC" result="> 100 µM"
compound=O=C(O)CN1CCN2CCOCCOCCN(CC1)CCN(CC(=O)O)CC2 target_under_test="A549 NSCLC" result="> 100 µM"
compound=CC(C)(C)OC(=O)c1cnc(Cl)cn1 target_under_test="A549 NSCLC" result="> 100 µM"

# input Provide TGI value for the following compound: CC(=O)OCC1OC(n2c(-c3ccccc3)c(C(C)=O)c(-c3ccc(Cl)cc3)c(C#N)c2=S)C(OC(C)=O)C(OC(C)=O)C1OC(C)=O (stereo not given)
# output > 100 µM

# input Provide TGI value for the following compound: "COc1cc(-c2nn(-c3cccc(NC(=O)Nc4cc(C(F)(F)F)cc(C(F)(F)F)c4)c3)cc2-c2ccncc2)ccc1Cl"
# output 2.8 µM

# input Provide TGI value for the following compound: O=C(CC1(O)C(=O)Nc2c(Cl)ccc(Cl)c21)c1ccc2ccccc2c1 (stereo not given)
# output 39.6 µM

---

Catalogue of TGI readings, one per entry.
tested on: SW-620 colon; assay: NCI tumour cell line growth inhibition, 48 h

A selection of reference data follows.
compound=C=CC(=O)N1CCN(c2nc(=O)n(-c3c(C)ccnc3C(C)C)c3nc(-c4c(O)cccc4F)c(F)cc23)[C@@H](C)C1 target_under_test="SW-620 colon" result="> 100 µM"
compound=COc1ccc(C(=O)Cn2c(C(=O)/C=C/c3ccco3)nc3ccccc32)cc1 target_under_test="SW-620 colon" result="> 100 µM"
compound="CC(=O)N1OC(C)CC1Nc1ccc(Br)cc1 (stereo not drawn)" target_under_test="SW-620 colon" result="> 100 µM"
compound=CCOC(=O)N1CCc2cc(OC)c(OC)c3c2c1cc1cc(OC)c(OC)cc13 target_under_test="SW-620 colon" result="81.1 µM"
compound=COc1ccc(-n2nnnc2-c2c[nH]c3c(F)cc(F)cc23)cc1 target_under_test="SW-620 colon" result="> 100 µM"
compound="COC1CC(OC2C(C)OC(OC3C(C)OC(OC4C(O)CC(O[C@H]5CC[C@@]6(C)C(=CC[C@]7(O)[C@@H]6C[C@@H](OC(=O)/C=C/c6ccccc6)[C@@]6(C)[C@]7(O)CC[C@@]6(O)C(C)=O)C5)OC4C)CC3OC)CC2OC)OC(C)C1O (stereo partly drawn)" target_under_test="SW-620 colon" result="> 6.25 µM"

# input Provide TGI value for the following compound: "Oc1cc(O)c2c(-c3c(O)c(-c4ccc(O)c(O)c4)[o+]c4cc(O)cc(O)c34)c(O)c(-c3ccc(O)c(O)c3)[o+]c2c1"
# output > 100 µM

# input Provide TGI value for the following compound: N#CC(C(=O)/C(=N/N)C(C#N)c1ccccc1)c1ccccc1 (stereo not drawn)
# output > 100 µM

---

Catalogue of log10 TGI readings, one per entry.
system: SK-OV-3 ovarian; assay: NCI tumour cell line growth inhibition, 48 h
Response schema: value (number) is log10 of TGI in units of µM.

structure_notation=c1ccc2c(c1)nc1n2CCCn2ccnc2-1 recorded_number=0.96

# input Provide log10 TGI value for the following compound: "COc1cc(/C=C2\C[C@H]3[C@@H]4CC=C5C=C(N6CCCC6)CC[C@]5(C)[C@H]4CC[C@]3(C)C2=O)cc(OC)c1OC"
# output 1.34

# input Provide log10 TGI value for the following compound: "C/C(=N/Nc1nc2ccccc2n1C)c1ccccn1"
# output 0.77

# input Provide log10 TGI value for the following compound: "Nc1c2c(=O)[nH]c(=O)c2c(N)c2c(=O)c3ccccc3c(=O)c12"
# output 1.52

---

Catalogue of TGI readings, one per entry.
tested on: IGROV1 ovarian; assay: NCI tumour cell line growth inhibition, 48 h

A selection of reference data follows.
compound=c1ccc(Cc2nc(Cc3n[nH]c(Cc4ccccc4)n3)n[nH]2)cc1 reported_endpoint=TGI result="> 100 µM"
compound=N=C(N)N1CCC(N2CCOCC2)CC1 reported_endpoint=TGI result="> 100 µM"
compound="O=C1CCCCCCCC/C=C\\CC(c2ccco2)O1 (stereo unspecified)" reported_endpoint=TGI result="> 100 µM"
compound="CCOC(=O)C12CCC(=O)C=C1[C@@H](C)C(=O)CC2 (stereo partly specified)" reported_endpoint=TGI result="> 100 µM"
compound=Cc1ccccc1C(=O)c1ccccc1O reported_endpoint=TGI result="> 100 µM"
compound=CCn1c(CN2CCN(Cc3ccccc3)CC2)nc2cc(NC(=O)c3cccs3)ccc21 reported_endpoint=TGI result="80.3 µM"

# next compound below
# input Provide TGI value for the following compound: "Oc1cc(Br)cc2cccnc12"
# output 8.22 µM

---

Catalogue of TGI readings, one per entry.
system: OVCAR-5 ovarian; test: NCI tumour cell line growth inhibition, 48 h

# input Provide TGI value for the following molecule: "C=CC(=O)N1CCN(c2nc(=O)n(-c3c(C)ccnc3C(C)C)c3nc(-c4c(O)cccc4F)c(F)cc23)[C@@H](C)C1"
# output > 100 µM

# input Provide TGI value for the following molecule: CC(C)(C)c1cc(C2NCCO2)cc(C(C)(C)C)c1O (centres undefined)
# output > 100 µM

# input Provide TGI value for the following molecule: "CCOc1ccc(-c2nonc2NC(=O)c2cccc(C)c2)cc1OCC"
# output > 100 µM

# input Provide TGI value for the following molecule: "CC(C)(C)C(=O)C(C(=O)C(C)(C)C)C(=O)C(C)(C)C"
# output > 100 µM

# input Provide TGI value for the following molecule: "COc1ccc(/C=C\c2cc(OC)c(OC)c(OC)c2)cc1OC(=O)c1cccc(Cn2cc(CCOC(=O)[C@H](N)Cc3cn(C)c4ccccc34)nn2)c1"
# output > 100 µM

# input Provide TGI value for the following molecule: COC(=O)C1=C(C(=O)ON)C2C=CC1(C(Cc1ccccc1)Nc1ccccc1)O2 (centres undefined)
# output 12.1 µM

# input Provide TGI value for the following molecule: COC(=O)C(=O)OC1(C(C)=O)CC2(c3ccccc3)OC1(c1ccccc1)c1ccccc12 (centres undefined)
# output 63 µM

# input Provide TGI value for the following molecule: "COc1ccc(-n2nnnc2-c2c[nH]c3c(F)cc(F)cc23)cc1"
# output > 100 µM

# input Provide TGI value for the following molecule: "CSc1nc(Cl)c(Br)c(Sc2nc(N)nc3nc[nH]c23)n1"
# output 24.1 µM
